System: Trypanosoma brucei rhodesiense
experiment_notes: Antitrypanosomal activity against Trypanosoma brucei rhodesiense STIB900 after 70 hrs by alamar blue assay
Type: functional, organism-based
condition_notes: STIB900, 70 h
result_type: IC50
Could you give the number and then its unit, please?

Value lookup for IC50; key = c1cc(C2=NCCN2)cc(-c2cn(-c3ccc(C4=NCCN4)cc3)nn2)c1 0.2 µM

Cl.Cl.N=C(N)c1cccc(-c2cn(-c3ccc(C(=N)N)cc3O)nn2)c1 ? 0.175 µM

CC(C)NC(=N)c1ccc(-c2cn(-c3cc(C(=N)NC(C)C)ccc3O)nn2)cc1 ? 15.1 µM

Oc1ccc(C2=NCCN2)cc1-n1cc(-c2cccc(C3=NCCN3)c2)nn1 ? 102 µM

COc1cc(C2=NCCN2)ccc1-n1cc(-c2cccc(C3=NCCN3)c2)nn1 ? 1.87 µM

COc1ccc(C(=N)N)cc1-c1cn(-c2ccc(C(=N)N)cc2)nn1.Cl.Cl ? 0.008 µM

COc1cc(C(=N)NC(C)C)ccc1-c1cn(-c2cccc(C(=N)NC(C)C)c2)nn1 ? 0.703 µM

COc1ccc(C(=N)NC(C)C)cc1-c1cn(-c2cccc(C(=N)NC(C)C)c2)nn1 ? 1.25 µM

Cl.Cl.Oc1ccc(C2=NCCN2)cc1-c1cn(-c2ccc(C3=NCCN3)cc2)nn1 ? 0.043 µM

CC(C)NC(=N)c1ccc(-c2cn(-c3cccc(C(=N)NC(C)C)c3)nn2)cc1 ? 0.462 µM

COc1cc(C2=NCCN2)ccc1-c1cn(-c2cccc(C3=NCCN3)c2)nn1 ? 4.02 µM

COc1ccc(C(=N)N)cc1-c1cn(-c2cccc(C(=N)N)c2)nn1 ? 1.65 µM

Cl.Cl.N=C(N)c1ccc(-n2cc(-c3cc(C(=N)N)ccc3O)nn2)cc1 ? 0.006 µM

COc1ccc(C(=N)NC(C)C)cc1-c1cn(-c2ccc(C(=N)NC(C)C)cc2)nn1 ? 0.077 µM

Oc1ccc(C2=NCCN2)cc1-n1cc(-c2ccc(C3=NCCN3)cc2)nn1 ? 19.6 µM

###

selectivity ratio values for the molecules below.
experiment_notes: Selectivity index, ratio of IC50 for rat L6 cells to IC50 for Trypanosoma brucei rhodesiense STIB900
Format: toxicity, cell-based
condition_notes: read-out: Ratio IC50

CC(C)NC(=N)c1ccc(-n2cc(-c3ccc(C(=N)NC(C)C)cc3O)nn2)cc1.Cl.Cl | > 4860

Value lookup for selectivity ratio; key = COc1cc(C(=N)N)ccc1-n1cc(-c2ccc(C(=N)N)cc2)nn1.Cl.Cl > 4820

Cl.Cl.c1cc(-c2cn(-c3ccc(C4=NCCN4)cc3)nn2)ccc1C1=NCCN1 ? 1910

Cl.Cl.N=C(N)c1cccc(-n2cc(-c3ccc(C(=N)N)cc3O)nn2)c1 ? > 26200

COc1ccc(C2=NCCN2)cc1-n1cc(-c2cccc(C3=NCCN3)c2)nn1 ? > 22

###

experiment_notes: Selectivity index, ratio of IC50 for rat L6 cells to IC50 for Plasmodium falciparum K1
Assay type: toxicity, cell-based
condition_notes: read-out: Ratio IC50
selectivity ratio values for the molecules below.

CC(C)NC(=N)c1cccc(-n2cc(-c3ccc(C(=N)NC(C)C)cc3O)nn2)c1.Cl.Cl | > 3570
N=C(N)c1cccc(-c2cn(-c3cc(C(=N)N)ccc3O)nn2)c1 | > 23
CC(C)NC(=N)c1ccc(-n2cc(-c3cc(C(=N)NC(C)C)ccc3O)nn2)cc1.Cl | > 6390
COc1cc(C2=NCCN2)ccc1-n1cc(-c2ccc(C3=NCCN3)cc2)nn1 | > 10400
Cl.Cl.Oc1cc(C2=NCCN2)ccc1-c1cn(-c2ccc(C3=NCCN3)cc2)nn1 | > 317000

Value lookup for selectivity ratio; key = Cl.Cl.N=C(N)c1ccc(-c2cn(-c3cccc(C(=N)N)c3)nn2)cc1 21500

Cl.Cl.N=C(N)c1cccc(-c2cn(-c3cccc(C(=N)N)c3)nn2)c1 ? 10400

COc1cc(C(=N)N)ccc1-n1cc(-c2ccc(C(=N)N)cc2)nn1.Cl.Cl ? > 20300

Oc1ccc(C2=NCCN2)cc1-n1cc(-c2cccc(C3=NCCN3)c2)nn1 ? > 535

Cl.Cl.N=C(N)c1cccc(-n2cc(-c3ccc(C(=N)N)cc3O)nn2)c1 ? > 30000
